Here, each record is paired with measured TGI data.
- System: NCI-H23
- PROCEDURE TEXT: Antiproliferative activity against human NCI-H23 cells measured after 48 hrs by SRB assay
- Type: functional, cell-based
- DETAILS: NCI-H23, time 48 hrs
Express your answer in µM, writing the number without its unit.

Worked examples, 3 compounds total:
O=C(NCCCNc1cc(-c2cn(-c3ccccc3)nc2-c2cccc(O)c2)ccn1)Nc1cccc(C(F)(F)F)c1 ... 9.34
O=C(Nc1ccc(Cl)c(C(F)(F)F)c1)N1CCN(c2cc(-c3cn(-c4ccccc4)nc3-c3cccc(O)c3)ccn2)CC1 ... 14.9
O=C(NCCCNc1cc(-c2cn(-c3ccccc3)nc2-c2cccc(O)c2)ccn1)Nc1ccc(F)cc1 ... 7.65

Exercise: Looking for the measured TGI of O=C1c2ccccc2-c2n[nH]c3cccc1c23 , can you help?
Solution: 58.1

Exercise: Item under review: CNC(=O)c1cc(Oc2ccc(NC(=O)Nc3ccc(Cl)c(C(F)(F)F)c3)cc2)ccn1 . Reported TGI?
Solution: 5.01

---

- Tested on: HCT-116
- PROCEDURE TEXT: Antiproliferative activity against human HCT-116 cells measured after 48 hrs by SRB assay
- Format: functional, cell-based
- DETAILS: HCT-116, 48 h
ENDPOINT NAME: pIC50
// pIC50 is dimensionless: -log10 of concentration (M)

Worked examples follow.
O=C(NCCCNc1cc(-c2cn(-c3ccccc3)nc2-c2cccc(O)c2)ccn1)Nc1cccc(C(F)(F)F)c1 ... 5.71
O=C(NCCCNc1cc(-c2cn(-c3ccccc3)nc2-c2cccc(O)c2)ccn1)Nc1ccc(F)cc1 ... 5.79
COc1cccc(-c2nn(-c3ccccc3)cc2-c2ccnc(NCCCNC(=O)Nc3ccc(F)cc3)c2)c1 ... 5.24
O=C1c2ccccc2-c2n[nH]c3cccc1c23 ... 4.35

Exercise: Bench note: what pIC50 did O=C(Nc1ccc(Cl)c(C(F)(F)F)c1)N1CCN(c2cc(-c3cn(-c4ccccc4)nc3-c3cccc(O)c3)ccn2)CC1 show?
Solution: 5.73

---

- Tested on: NCI-H322M
- PROCEDURE TEXT: Antiproliferative activity against human NCI-H322M cells measured after 48 hrs by SRB assay
- Format: functional, cell-based
- DETAILS: time 48 hrs
Listed here are molecules together with their documented TGI.
The response must be a number in µM with no trailing unit.

O=C(NCCCNc1cc(-c2cn(-c3ccccc3)nc2-c2cccc(O)c2)ccn1)Nc1cccc(C(F)(F)F)c1 ... 9.32

We now examine a further molecule.
Exercise: Dear colleague, I am looking for the recorded TGI of the following molecule: O=C(NCCCNc1cc(-c2cn(-c3ccccc3)nc2-c2cccc(O)c2)ccn1)Nc1ccc(F)cc1
Solution: 12.4

---

- Tested on: OVCAR-3
- PROCEDURE TEXT: Antiproliferative activity against human OVCAR-3 cells measured after 48 hrs by SRB assay
- Format: functional, cell-based
- DETAILS: OVCAR-3, time 48 hrs
ENDPOINT NAME: TGI

O=C(NCCCNc1cc(-c2cn(-c3ccccc3)nc2-c2cccc(O)c2)ccn1)Nc1ccc(F)cc1 ... 8.69 µM
COc1cccc(-c2nn(-c3ccccc3)cc2-c2ccnc(NCCCNC(=O)Nc3ccc(F)cc3)c2)c1 ... > 37 µM
O=C(Nc1ccc(Cl)c(C(F)(F)F)c1)N1CCN(c2cc(-c3cn(-c4ccccc4)nc3-c3cccc(O)c3)ccn2)CC1 ... 11.5 µM
O=C1c2ccccc2-c2n[nH]c3cccc1c23 ... 92 µM

Now for the molecule whose TGI we want.
Exercise: API: value(readout= TGI, system= OVCAR-3, query= O=C(NCCCNc1cc(-c2cn(-c3ccccc3)nc2-c2cccc(O)c2)ccn1)Nc1cccc(C(F)(F)F)c1 )
Solution: 9.35 µM
